Ref: patent US6635641B2

Structures can show the parent of a compound that is named as a salt.
recorded.metric: melting point

COc1cc(NC(=O)c2cccc(CSc3nc(NC(C)=O)n[nH]3)c2)cc(OC)c1OC = 196 to 201 °C
O=C(Nc1cc(Cl)c(N2CCOCC2)c(Cl)c1)c1ccc(F)c(OCc2cccnc2)c1 = 209 to 211 °C
O=C(Nc1ccc(N2CCOCC2)c(C(F)(F)F)c1)c1ccc(F)c(OCc2cccnc2)c1 = 160 to 161 °C
O=C(Nc1cccc(OCc2cccnc2)c1)N1CCOCC1 (as salt: salt) = 58 to 62 °C
CC(=O)Oc1ccc(C(=O)Nc2cccc(OCc3cncc4ccccc34)c2)cc1C(C)(C)C = 83 to 86 °C

Indicate its recorded melting point; the compound in question is COc1cc(NC(=O)c2cccc(SCc3cc(Nc4ccccc4)n[nH]3)c2)cc(OC)c1OC
67 to 69 °C

Indicate its recorded melting point; the compound in question is Cc1ccc2cc(NC(=O)c3cccc(SCc4cc(-c5ccccc5)n[nH]4)c3)ccc2n1
99 to 101 °C

---

- Tested on: human umbilical vein endothelial cells (HUVEC)
- run.description: HUVEC proliferation assay (VEGF-stimulated, MTT)
- Type: cell-based
- condition.summary: Homo sapiens, HUVEC; read-out: HUVEC IC50
recorded.metric: pIC50
Hey, just a heads up that pIC50 is the negative log base 10 of the concentration in molar.

Solved cases below.
COc1ccc(Nc2cc(CCc3cccc(C(=O)Nc4ccc(N(C)C)c(C(F)(F)F)c4)c3)[nH]n2)cn1 = 8.08
O=C(Nc1cccc(OC(F)(F)F)c1)c1cccc(OCc2cncc3ccccc23)c1 = 7.06

Shift focus to the following entry.
Indicate its recorded pIC50; the compound in question is Cc1cc(NC(=O)c2cccc(SCc3cnccn3)c2)ccc1C(C)C
6.28

---

- assayed.system: phosphorylated VEGF-R2Δ50 (FLVK-P) (Homo sapiens, UniProt P35968, DEL940-989/E990V)
- Construct: VEGF-R2Δ50 contains residues 806-939 and 990-1171; made in house; host or cells: baculovirus/insect cells
- Sequence (P35968 with tags, fused parts or gaps DEL940-989/E990V limits assumed): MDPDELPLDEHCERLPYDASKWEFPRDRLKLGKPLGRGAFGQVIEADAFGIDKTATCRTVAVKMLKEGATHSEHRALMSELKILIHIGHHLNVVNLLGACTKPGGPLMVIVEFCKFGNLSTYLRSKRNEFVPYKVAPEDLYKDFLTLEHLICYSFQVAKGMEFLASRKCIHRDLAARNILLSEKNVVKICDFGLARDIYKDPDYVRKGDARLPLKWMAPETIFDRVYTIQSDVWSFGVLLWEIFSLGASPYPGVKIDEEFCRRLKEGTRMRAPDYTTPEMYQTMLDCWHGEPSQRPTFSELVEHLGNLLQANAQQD
- run.description: VEGF-R2 coupled spectrophotometric assay, phosphorylated construct (FLVK-P)
- Assay type: biochemical
recorded.metric: Ki (nM)

Solved cases below.
Cc1cc(NC(=O)c2cccc(C3CC3c3cc(Nc4ccccc4)n[nH]3)c2)ccc1C(C)C (stereo not shown) = 1.19
COc1ccc(NC(=O)c2cccc(CSc3ncnc4[nH]ncc34)c2)cn1 = 1820

a. O=C(NOCc1ccccc1)c1cccc(OCc2cncc3ccccc23)c1
b. COc1cc(NC(=O)c2cccc(CSc3cnccn3)c2)cc(OC)c1OC
c. Cc1cc(NC(=O)c2cccc(CCc3cncc4ccccc34)c2)ccc1C(C)C
List from greatest to least Ki. Your answer should be the labels, listed in the requested order.
b, a, c

P. Cc1cc(NC(=O)c2cccc(CSc3ncnc4[nH]ncc34)c2)ccc1C(C)C
Q. C=CCn1ccc2cc(NC(=O)c3cccc(OCc4cccnc4)c3)ccc21
// returns P or Q , whichever has the lower Ki // caller expects the label of the chosen entry
P

---

- assayed.system: LCK tyrosine kinase (Homo sapiens, UniProt P06239, C224D/P223M)
- Construct: starting from amino acid residue 223 to the end of the protein at residue 509; made in house; host or cells: insect cells
- Sequence (P06239 223-509 P223M/C224D): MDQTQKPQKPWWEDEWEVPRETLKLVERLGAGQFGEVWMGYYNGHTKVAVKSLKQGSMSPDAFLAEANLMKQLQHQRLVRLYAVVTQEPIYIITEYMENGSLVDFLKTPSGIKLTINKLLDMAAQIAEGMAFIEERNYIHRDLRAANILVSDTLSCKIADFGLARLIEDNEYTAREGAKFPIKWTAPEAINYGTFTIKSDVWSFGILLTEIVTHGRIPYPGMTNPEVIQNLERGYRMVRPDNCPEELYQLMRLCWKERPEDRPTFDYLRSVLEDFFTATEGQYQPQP
- run.description: LCK spectrophotometric assay;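 also: recombinant LCK kinase activity on poly(E4Y1), ADP formation coupled through PK/LDH to NADH oxidation, followed as absorbance loss at 340 nm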
- Format: biochemical
- condition.summary: @ 1 μM; read-out: LCK-P percent inhibition
Structures can show the parent of a compound that is named as a salt.
recorded.metric: inhibition at 1 µM (%)

Solved cases below.
Cc1cc(NC(=O)c2ccc(Cl)c(OCc3cncc4ccccc34)c2)ccc1C(C)C = 48
CC(C)(C)c1cc(C(=O)Nc2cccc(OCc3cccnc3)c2)ccc1O = 11
CC(=O)Nc1ccc(CCc2cccc(C(=O)Nc3ccc(N4CCNCC4)c(C(F)(F)F)c3)c2)cn1 [AA-1, dihydrochloride] = 44
Cc1ccc(C(=O)Nc2ccc(C(C)C)c(C)c2)cc1OCc1cncc2ccccc12 = 82
O=C(Nc1ccc(-n2cccn2)c(C(F)(F)F)c1)c1ccc(F)c(OCc2cccnc2)c1 = 13

a. CC(C)(C)c1cc(C(=O)Nc2cccc(SCc3cncc4ccccc34)c2)ccc1O.Cl
b. C/C=C/c1cc(COc2cc(C(=O)Nc3ccc(N4CCCC4)c(C(F)(F)F)c3)ccc2F)[nH]n1
c. O=C(Nc1ccc(N2CCOCC2)c(C(F)(F)F)c1)c1ccc(F)c(OCc2cccnc2)c1
List from greatest to least inhibition at 1 µM. Your answer should be the labels, listed in the requested order.
a, c, b
(a: 65%, c: 45%, b: 19%)

P. COc1ccc(Nc2cc(CCc3cccc(C(=O)Nc4ccc(N5CCNCC5)c(C(F)(F)F)c4)c3)[nH]n2)cn1
Q. O=C(Nc1ccc(N2CCNCC2)c(C(F)(F)F)c1)c1ccc(F)c(OCc2cncc3ccccc23)c1
Choose between P and Q : whose measured inhibition at 1 µM value is numerically larger? // caller expects the label of the chosen entry
P
(P: 48%, Q: 26%)
